The origin of these recorded values is patent US20260132197A1.

Subject Of Test: T1, wild type human CD47 (Acro Biosystems, cat. no. CD7-H5227) (human, UniProt Q08722 19-139)
T1 construct: Bought protein used as SPR analyte; also called Human CD47 wt; wild-type CD47
Experiment: SPR, IgG captured, CD47 in flow; exp 1;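 also: biacore T200 SPR using IgG from supernatants of transfected HEK293 cells, rate constants fitted to association and dissociation curves, Kd derived from koff over kon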
kon values for the binders below.
Numbers only here, please. The scale is M⁻¹ s⁻¹.

INSERT INTO measurements (binder, measured_value) VALUES
  ('108VH4.M4-VL1.M1 (antibody, V domains shown, also called original humanized 108C10A6 antibody) VH: EVQLVQSGAEVKKPGSSVKVSCKASGYSFTHHWIHWVRQAPGQGLEWMGMIDASDSETRLSQKFKDRVTITADKSTSTAYMELSSLRSEDTAVYYCARLGRYYFDYWGQGTTVTVSS VL: EIVLTQSPATLSLSPGERATLSCRASENVGTYISWYQQKPGQAPRLLIYGASNRYTGIPARFSGSGSGTDFTLTISSLEPEDFAVYYCGESYGHLYTFGGGTKVEIK', '1.1e+06'),
  ('108VH5.M9 / 108VL1.M5 (antibody, human IgG4 S228P, kappa, V domains shown, Full-length IgG4 (S228P), kappa; also called VH5.M9 VL1.M5) VH: EVQLVQSGAEVKKPGASVKVSCKASGYSFTHHWIHWVRQAPGQGLEWMGMIDASDSETRLSQKFQGRVTMTRDTSTSTVYMELSSLRSEDTAVYYCARLGRYYFDYWGQGTLVTVSS VL: EIVLTQSPATLSLSPGERATLSCRASQSVSSYLAWYQQKPGQAPRLLIYGASNRATGIPARFSGSGSGTDFTLTISSLEPEDFAVYYCGESYGHLYTFGGGTKVEIKR', 760000),
  ('108VH5.M8 / 108VL1.M5 (antibody, human IgG4 S228P, kappa, V domains shown, Full-length IgG4 (S228P), kappa; also called VH5.M8 VL1.M5) VH: EVQLVQSGAEVKKPGASVKVSCKASGYSFTHHWIHWVRQAPGQGLEWMGMIDASDSETRYAQKFKDRVTMTRDTSTSTVYMELSSLRSEDTAVYYCARLGRYYFDYWGQGTLVTVSS VL: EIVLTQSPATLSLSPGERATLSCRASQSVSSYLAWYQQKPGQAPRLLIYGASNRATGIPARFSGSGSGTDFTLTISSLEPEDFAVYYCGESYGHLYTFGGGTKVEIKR', 720000);

Read the next record carefully.
Look up and state reported kon for chimeric antibody 108C10A6 (antibody, V domains shown, Chimeric antibody with mouse variable domains; captured through human Fc; also called VH / VL) VH: QMQLQQSGPQLVRPGASVKISCKTSGYSFTHHWIHWMKQRPGQGLEWIGMIDPSDSETRLSQKFKDKATLTVDASSSTAYMQLNSPTSEDSALYFCARLGRYYFDYWGQGTTLTVSS VL: NIVMTQSPRSMSMSVGERVTLSCKASENVGTYISWYQQKPDQSPKLLIYGASNRYTGVPDRFTGSGSGTDFTLTISTVQAEDLADYHCGESYGHLYTFGGGTKLEIK
1.5e+06
